Experiment: yeast display, Sf9 membrane polyspecificity reagent, FACS + sequencing; frameworks hold sequencing errors
Assay Endpoint: polyreactivity (PSR sort gate)

INSERT INTO results (residue_sequence, assay_endpoint, endpoint_result) VALUES
  ('QVQLVESGGGLVQAGGSLRLSCAASGSTFRTYAIGWYRQAPAKERELVAAISRSGGRTYYADSVKGRFTISRDNAMNTVYLQMNSLKPEDTAVYYCAVGDTYTYDYWGQGTQVTVSS', 'polyreactivity (PSR sort gate)', 'high polyreactivity'),
  ('QVQLVESGGGLVQAGGSLRLSCAASGFTFDGYAMGWDRQAPGKESELVAAISDSGDSTYYADSVKGRFTISRDNAKNTVYLQMNSLTPEDTAVYYCAAGLGYYWSDYFADDSCGQGTQVTVSS', 'polyreactivity (PSR sort gate)', 'low polyreactivity'),
  ('QVQLVESWGGLVQAGGSLRLSCAASGSTFVAYAMGGYRQAPGKEREFVAGISVRGGSTYYADSVKGRFTISRDNAKNTVYLQMNSLKPEDTAVYYCAARRVDTRVHVRYRYYYWGQGTQVTVSS', 'polyreactivity (PSR sort gate)', 'high polyreactivity'),
  ('QVHLVESGGGLVQAGGSLRLSCAASGIIFDHYAMVWYRPAPGKERELVAAISTGGGNTYYADSLKGRFTISRDNAKNTVYLQMNSLKPEDTAVYYCNADVLWGRRWGDYYGYDYWGQGTQVTVSS', 'polyreactivity (PSR sort gate)', 'low polyreactivity');

# ---- query sequence ----
Return the recorded polyreactivity (PSR sort gate) value; entry: QVQLVESGGGLVQAGGSLSLSCAATGSIFGGNAMGWKRQAPGKERELVATITDRGSSTYYADSVKGRFTISRDNAKNTVYLRMHSLNPDDTAVYYCANAFPDVPEHDYGGQGTQVTVSS
low polyreactivity
